Assay: in vivo pharmacokinetic study in SD rats
Settings: male, rat, plasma, 1 mg/kg, PO
Protocol: 2.2.1 Rats: SD rats, SPF grade, 6 rats per compound, male, body weight range 180-200 g. 2.2.2 Housing conditions: The animals were housed in an SPF-grade animal facility with free access to food and water, three per cage, under a 12/12-hour light/dark cycle (7:00 am/7:00 pm), at a temperature of 23 ± 3°C. […] The data were analyzed using WinNonlin via a non-compartmental model to obtain PK parameters (Cmax, AUC0-last, AUCinf, T1/2, etc., selected based on different routes of administration). […]
AUC(0-t) values by entry
Record the value in ng·h/mL, omitting the unit from your answer.

Before answering, review these 5 worked examples.
{"columns": ["COMPOUND", "AUC(0-t) [ng·h/mL]"],
 "data": [
  ["Cc1cccnc1[C@H](Nc1c(Nc2ccc(F)c(C(=O)N(C)C)c2O)c(=O)c1=O)C1(C)CC(F)(F)C1", 163],
  ["Cc1nccnc1[C@H](Nc1c(Nc2ccc(F)c(C(=O)N(C)C)c2O)c(=O)c1=O)C1(C)CCCC1", 181],
  ["CN(C)C(=O)c1nccc(Nc2c(N[C@@H](c3nc(F)ccc3F)C3(C)CCCC3)c(=O)c2=O)c1O", 616],
  ["Cc1cccnc1[C@H](Nc1c(Nc2ccnc(C(=O)N(C)C)c2O)c(=O)c1=O)C12CC(C1)C2", 272],
  ["Cc1cccnc1[C@H](Nc1c(Nc2ccnc(C(=O)N(C)C)c2O)c(=O)c1=O)[C@]1(C)CC(F)(F)CO1 (single isomer, unassigned) [128B]", 334]
]}

Please give the measured AUC(0-t) for this compound: Cc1cccnc1[C@H](Nc1c(Nc2ccnc(C(=O)N(C)C)c2O)c(=O)c1=O)C1(C)CCCC1
1710

Next compound: CN(C)C(=O)c1nccc(Nc2c(N[C@@H](c3nc(CF)ccc3F)C3(C)CCCC3)c(=O)c2=O)c1O
276

Same question, CN(C)C(=O)c1nccc(Nc2c(N[C@@H](C#CC3CCC3)[C@]3(C)CC(F)(F)CO3)c(=O)c2=O)c1O (single isomer, unassigned) [110A] this time
397

Can you handle CN(C)C(=O)c1nccc(Nc2c(NC(c3nc(F)ccc3F)C3(C)CC4CC4C3)c(=O)c2=O)c1O (stereo not drawn) next?
417

Follow-up entry: CN(C)C(=O)c1nccc(Nc2c(N[C@@H](c3nc(C(F)F)ccc3F)C3(C)CCCC3)c(=O)c2=O)c1O
485
